# Species: Homo sapiens
# assayOverview: To identify inhibition of the IFN signalling (Jak-Stat) pathway via expression of an eGFP reporter gene under the control of an IFN-stimulated response element (ISRE) containing MxA promoter.
# Format: functional
# Parameters: scale not given: direction of the effect not stated beside the values
# testConditions: 30 µM
Checkbox rule: Percent Effect lower than 8% = criterion met; Percent Effect not lower than 8% = criterion not met.

> print(dat)
                                   compound  assignedcategory
1  COc1cccc(CN2CCCC(Nc3cccc(F)c3)C2)c1O (stereo unspecified)     criterion met

Moving on to the next compound.
Inquiry: Quick check: does `Cc1nn(CC(C)C)c(N(C)C)c1CNCc1cccc2c1OCO2` have Percent Effect under 8%?
Reply text: criterion not met

====

Measured Percent Effect by item
# experimentalSystem: Tyrosyl-tRNA synthetase, putative (Trypanosoma cruzi (strain CL Brener))
# assayOverview: Trypanosoma cruzi tyrosyl tRNA synthetase (TcYRS) SOP
# Assay type: functional
# Parameters: scale not given: direction of the effect not stated beside the values
# testConditions: 30 µM
Give a bare numeral; the unit % is implied.

# annotated cases, reported Percent Effect shown
> print(dat)
                                   compound  result
1  COCc1ccccc1C(=O)NCCCN1CCCC1C(=O)N(C)C (configuration not stated)    12.5
2  CCn1ncc2c1C(COCC1CC1)CN(C(=O)c1cccs1)C2 (configuration not stated)    13.6
3                 COCC(=O)N(C)Cc1cccc(Cl)c1      13
4   O=C(Cn1cnc(NC(=O)CC2CCCC2)n1)NCc1ccccc1    17.1
5  CC1CN(C)CCN1C(=O)c1ccn(-c2cccc(Cl)c2)n1 (configuration not stated)    9.76

Percent Effect of `Cc1cc(C)c(CNC(=O)NCc2ccc3c(c2)CCC3)c(=O)[nH]1` , assay on Tyrosyl-tRNA synthetase, putative (Trypanosoma cruzi (strain CL Brener)), is 0

Field Percent Effect (system: Tyrosyl-tRNA synthetase, putative (Trypanosoma cruzi (strain CL Brener))) for entry Cc1nccc(C2CN(Cc3cc[nH]n3)CCO2)n1 (configuration not stated) = 3.9

Simply: CC(CN1CCN(C)CC1)NC(=O)c1cc(Cl)c2c(c1)OCO2 (configuration not stated) , Tyrosyl-tRNA synthetase, putative (Trypanosoma cruzi (strain CL Brener)), Percent Effect = 10.3

The measured Percent Effect that CC(=O)N(Cc1ncc(C)o1)C1CCN(CCNC2CCCCC2)C1 (configuration not stated) showed for Tyrosyl-tRNA synthetase, putative (Trypanosoma cruzi (strain CL Brener)) is -3.7

Percent Effect value, target or system Tyrosyl-tRNA synthetase, putative (Trypanosoma cruzi (strain CL Brener)), for `O=C(c1ncccn1)N1C[C@H]2CCC[C@@]2(COCc2ccncc2)C1` : 14.1

The measured Percent Effect that CC(NCc1ccncc1)c1cc(F)ccc1N1CCN(C)CC1 (configuration not stated) showed for Tyrosyl-tRNA synthetase, putative (Trypanosoma cruzi (strain CL Brener)) is 11.1

For c1ccc2sc(CN3CCCC3c3noc(C4CC4)n3)nc2c1 (configuration not stated) on Tyrosyl-tRNA synthetase, putative (Trypanosoma cruzi (strain CL Brener)), measured Percent Effect was 23.2

====

# experimentalSystem: Chromo domain-containing protein 1 (Saccharomyces cerevisiae (strain ATCC 204508 / S288c) (Baker's yeast))
# assayOverview: ScCHD-1 Enzyme Inhibition Assay; also: in the data most compounds retested in dose-response had high values
# Format: functional
# Design: scale not given: direction of the effect not stated beside the values
# testConditions: 30 µM
quantityKind: Percent Effect (%)
Respond numerically; units are % and should not be typed.

Example entries and their recorded answers appear below.
> print(dat)
                                   molecule  result
1  Cc1noc(C)c1CN1CC[C@H]2OCC[C@@H](C(=O)NCC3CC3)[C@@H]2C1   -5.06
2  CC(C)CN1CCC(c2nc3c([nH]2)CC(C)(C)CNC3=O)C1 (stereo unspecified)   -2.21
3  O=C(O)C(c1ccc2c(c1)OCCO2)N1CCCCCC1 (stereo unspecified)   -1.28
4  O=C(NCc1ccccc1)N1CCC2(CC(=O)N(c3ccsc3)C2)C1 (stereo unspecified)   -1.83
5      Cc1ccc(CN2CCn3c(C(=O)N(C)C)cnc3C2)s1   -5.78

Query `CCC(=O)N1CC[C@@H](c2ccc3ccccc3c2)[C@H](O)C1` yields Percent Effect of -8.24

The recorded Percent Effect for entry `O=C(c1ccc[nH]1)N1C[C@H]2CN(Cc3cccc(F)c3)C(=O)[C@H]2C1` equals -2.96

Kindly note the recorded Percent Effect for Cn1ccc(C(=O)N2CCCC(Cc3cccc4ncccc34)C2)n1 (stereo unspecified) , which is -12

====

Reported values of Percent Effect for individual entries
# experimentalSystem: Chromo domain-containing protein 1 (Saccharomyces cerevisiae (strain ATCC 204508 / S288c) (Baker's yeast)) (UniProt P32657)
# Sequence (P32657 whole entry, the tested form may be a part): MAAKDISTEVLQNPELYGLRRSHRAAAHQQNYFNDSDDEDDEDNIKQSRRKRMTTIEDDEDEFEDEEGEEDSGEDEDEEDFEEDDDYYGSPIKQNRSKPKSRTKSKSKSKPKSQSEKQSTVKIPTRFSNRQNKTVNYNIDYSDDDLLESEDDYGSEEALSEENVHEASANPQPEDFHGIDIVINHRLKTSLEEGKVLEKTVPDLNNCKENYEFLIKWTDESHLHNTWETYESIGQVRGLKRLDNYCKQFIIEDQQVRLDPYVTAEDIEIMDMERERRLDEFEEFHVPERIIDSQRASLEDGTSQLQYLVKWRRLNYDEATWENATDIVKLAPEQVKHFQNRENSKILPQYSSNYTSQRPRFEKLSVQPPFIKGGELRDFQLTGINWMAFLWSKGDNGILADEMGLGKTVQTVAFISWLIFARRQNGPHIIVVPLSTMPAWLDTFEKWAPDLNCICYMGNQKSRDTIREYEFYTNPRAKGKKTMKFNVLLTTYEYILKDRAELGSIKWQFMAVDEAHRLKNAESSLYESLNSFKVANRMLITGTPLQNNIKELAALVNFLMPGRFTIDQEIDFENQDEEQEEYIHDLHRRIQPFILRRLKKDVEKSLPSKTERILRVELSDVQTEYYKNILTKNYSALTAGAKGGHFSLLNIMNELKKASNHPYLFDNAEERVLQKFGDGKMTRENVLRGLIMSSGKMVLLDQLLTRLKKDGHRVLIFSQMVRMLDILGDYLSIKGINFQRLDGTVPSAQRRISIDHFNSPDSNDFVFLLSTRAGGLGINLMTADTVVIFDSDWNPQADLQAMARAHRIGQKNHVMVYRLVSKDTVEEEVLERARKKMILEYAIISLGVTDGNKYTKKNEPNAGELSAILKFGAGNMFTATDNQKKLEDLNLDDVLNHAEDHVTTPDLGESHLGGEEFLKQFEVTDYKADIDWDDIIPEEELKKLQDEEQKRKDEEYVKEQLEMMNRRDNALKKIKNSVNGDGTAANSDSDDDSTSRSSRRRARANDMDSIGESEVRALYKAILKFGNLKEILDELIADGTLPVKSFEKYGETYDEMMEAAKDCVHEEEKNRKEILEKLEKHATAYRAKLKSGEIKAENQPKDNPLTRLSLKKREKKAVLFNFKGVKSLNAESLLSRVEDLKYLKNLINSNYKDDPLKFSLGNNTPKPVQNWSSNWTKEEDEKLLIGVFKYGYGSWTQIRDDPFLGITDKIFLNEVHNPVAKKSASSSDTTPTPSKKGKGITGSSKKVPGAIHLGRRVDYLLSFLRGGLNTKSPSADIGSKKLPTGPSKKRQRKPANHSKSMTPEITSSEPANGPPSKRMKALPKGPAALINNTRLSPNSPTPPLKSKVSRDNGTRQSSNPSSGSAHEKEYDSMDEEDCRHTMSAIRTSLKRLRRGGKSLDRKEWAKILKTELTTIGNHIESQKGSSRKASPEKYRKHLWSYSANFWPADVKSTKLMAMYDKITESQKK
# assayOverview: ScCHD-1 Enzyme Inhibition Assay; also: in the data most compounds retested in dose-response had high values
# Assay type: functional
# Parameters: scale not given: direction of the effect not stated beside the values
# testConditions: 30 µM
Could you give me the number in %? Just the number is fine.

> print(dat)
                                   compound    quantitykind  outputunit  result
1  O=C(NCc1cccnc1)C1CC(=O)N(CC2CC2)C1 (configuration not stated)  Percent Effect           %   -21.7
2            O=S(=O)(Cc1ccccc1F)NCCN1CCOCC1  Percent Effect           %   -1.76
3  OC(CN1CCCCCCC1)c1ccc(F)cc1 (configuration not stated)  Percent Effect           %   -11.6

// next entry
Lab note: measured Percent Effect of COc1ccccc1C(=O)N1CCCC1Cn1cc(C)cn1 (configuration not stated) was -4.38

====

# experimentalSystem: AMP-activated protein kinase, AMPK (Homo sapiens) (UniProt P54646+O43741+P54619+Q9UGJ0+Q9Y478+Q13131+Q9UGI9)
# assayOverview: AMP-dependent Kinase enzyme assay. An in vitro enzyme assay that detects ADP turnover that is directly proportional to AMPK activity. This uses naive AMPK that is activated during the assay with MK-8722
# Assay type: functional
# Set-up: scale not given: direction of the effect not stated beside the values
# testConditions: 30 µM
quantityKind: Percent Effect
Express the reported value numerically, then name its unit.

Solved entries (count: 4):
> print(dat)
                                   compound  result
1  Cc1cnn(CCC(=O)N2CCCC(c3cc(C(N)=O)[nH]n3)C2)c1 (stereo unspecified)  -10.4%
2  Cc1cc(CN(C)C(=O)C2CCCN(C(=O)c3ccc(Cl)cc3)C2)no1 (stereo unspecified)   3.47%
3  CCc1nc(CC(=O)N2CCn3c(nnc3C(F)(F)F)C2)cs1   6.61%
4  c1csc(-c2nc(CNC3CCc4ncnn4C3)co2)c1 (stereo unspecified)  -1.01%

The compound listed as `O=C(NCCC1=CCCCC1)NCc1nnc2n1CCC2` shows Percent Effect equal to 1.86%

compound Cc1nn(C)c(C)c1C1CCCN1C(=O)CCCn1cccn1 (stereo unspecified) , Percent Effect observed: 3.67%

So, CC(C(N)=O)S(=O)(=O)Cc1cc(Cl)c2c(c1)OCO2 (stereo unspecified) ? Its Percent Effect was 1.18%

Percent Effect reading for `N#Cc1ccc(N2CCN(C(=O)c3cc(C4CC4)[nH]n3)CC2)c(F)c1` : -4.12%

Value of measured Percent Effect for the entry `Cc1cc(C)nc(CCNC(=O)[C@H]2CNC[C@@H](C(=O)N3CCCC3)C2)n1` : 2.23%

Percent Effect measured on `COCC(=O)N1CC[C@H]2C[C@@H](c3nnc(C4CC4)o3)O[C@@H]2C1` = -7.93%

Noted for `Cc1ccccc1NS(=O)(=O)c1cc2c(c(C(=O)O)c1)OCCO2` : its Percent Effect reads 0.578%

====

We begin with a simple list: items and their reported Percent Effect.
# Species: Homo sapiens
# assayOverview: To identify inhibition of the IFN signalling (Jak-Stat) pathway via expression of an eGFP reporter gene under the control of an IFN-stimulated response element (ISRE) containing MxA promoter.
# Format: functional
# Design: scale not given: direction of the effect not stated beside the values
# testConditions: 30 µM

> print(dat)
                                   compound   result
1             Cc1ccc(CNC(=O)Nc2nnc(C)s2)cn1    1.76%
2  Cc1cc(C)n(CC(=O)N2CCC(NS(C)(=O)=O)CC2)n1  -0.413%
3  CCc1c(C)sc(NC(=O)CN2CCN(CC)CC2)c1C(=O)OC   -12.9%
4  CS(=O)(=O)NC1CCc2c(ccc(=O)n2CC2CC2)C1 (centres undefined)   -2.08%
5  Cn1nnc2c1C(COCc1ccccn1)CN(C(=O)c1cccs1)C2 (centres undefined)    36.4%

Entry `Cc1csc(CNC(=O)N(C)Cc2cnn(C)c2)n1` , Percent Effect reported as 12.9%

Lab note: CNS(=O)(=O)c1ccc(C(=O)N2CCCC2c2ccccc2)o1 (centres undefined) gave Percent Effect of -6.57%

Field Percent Effect (entry `Cc1ccc(C)c(OCCN2CCC(N3CCNC3=O)CC2)c1` ) reads 6.79%

Consider `CC(=O)N1CCN(c2cc(-c3ccccc3)nc3c(C)c(C)nn23)CC1` . Its measured Percent Effect is 4.69%

GET /value?item= COCC1Cn2nnc(-c3cnn(C)c3)c2CN1Cc1ccc(C)s1 (centres undefined) &field=Percent Effect returns 48.1%

Percent Effect for `COc1cccc(C(=O)Nc2cc(CC(C)C)nn2C)c1` is 11%

Lab note: measured Percent Effect of `COCCCN(CCOC)C(=O)Nc1ccc(C)cc1C` was -18.5%

Field Percent Effect (entry CC(C)n1c(C2CCCN(Cc3ccnn3C)C2)nc2ccccc21 (centres undefined) ) reads 18.1%
